Data provenance is ChEMBL document CHEMBL1201862.

Catalogue of GI50 values
Tested on: HOP-18
Experiment: NCI tumour cell line growth inhibition, 48 h
Active and inactive are the calls of the source. Rule as the data show it: active = GI50 up to about 1.1 µM and inactive = higher.

CCN(CC)CCCN(c1cc(OC)cc2nccnc12)S(=O)(=O)c1ccc(C)cc1
> 100 µM (inactive)

Prompt: Give GI50 only, for COC(=O)C(C(=O)C(=O)Nc1ccc(Br)cc1)c1nc2ccc(Cl)cc2nc1O (stereo unspecified) , using HOP-18 data.
Completion: > 100 µM (inactive)

###

Test system: HT-29
Assay: NCI tumour cell line growth inhibition, 48 h
The source made the active and inactive calls. No stated cut-off is given here; in the data, active = GI50 up to about 1.1 µM and inactive = higher.
Attribute: GI50

Some compounds with recorded GI50:
O=C(c1c(F)c(F)c(F)c(F)c1F)c1c(F)c(F)c(F)c(F)c1F
1.32 µM (inactive)
CC(C)(Oc1ccc(C(=O)c2ccc(Cl)cc2)cc1Cl)C(=O)N1CCN(c2ccccc2)CC1
> 100 µM (inactive)
CC1(C)CCC[C@@]2(C)C1CC[C@@]1(CO)O[C@H](C3=CC(=O)OC3O)C[C@H]12 (some centres not stated)
13 µM (inactive)
Cc1ccc(C(=O)NC2CCCCC2)cc1/N=N/N(C)C
> 100 µM (inactive)
CN1N=CSC12C(=O)N(c1ccccc1)C(=O)N2c1ccccc1 (configuration not stated)
> 100 µM (inactive)
COc1cccc(N2N=C3c4ccccc4-n4c(nc5ccccc54)C3C2N)c1 (configuration not stated)
> 100 µM (inactive)
CCC(=O)Nc1ccc(/N=N/N(C)C)cc1
> 100 µM (inactive)
COc1ccc2oc(=O)c(CC=C(C)C)c(O)c2c1C
> 100 µM (inactive)

Field: next compound
Prompt: Please give the documented GI50 of Clc1ccc(CCNCCNC2(c3cc4ccccc4s3)CCCCC2)cc1Cl
Completion: 1.83 µM (inactive)

###

Tested on: A549
Assay: NCI tumour cell line growth inhibition, 48 h
Active and inactive are the calls of the source. No stated cut-off is given here; in the data, active = GI50 up to about 1.1 µM and inactive = higher.
Reported metric: GI50

O=C1c2ccccc2N(O)C1(c1ccccc1)C1CCCC=C1N1CCOCC1 (stereo not given)
50.4 µM (inactive)
Nc1ncnc2c1ncn2[C@H]1C=C[C@@H](NO)C1
> 100 µM (inactive)
Cn1c(=O)nc2n(-c3ccc(Cl)cc3)c3cc(Cl)ccc3nc-2c1=O
12.9 µM (inactive)
CCOP(=O)(OCC)/C(C#N)=C/c1ncc[nH]1
> 100 µM (inactive)

Prompt: Return reported GI50. Input molecule: COc1ccc2oc3cccc(NCCN(C)C)c3c(=O)c2c1
Completion: 14.2 µM (inactive)

###

System: SK-OV-3
Assay: NCI tumour cell line growth inhibition, 48 h
The source made the active and inactive calls. Cut-off read from the data, not from the text of the source: active = GI50 up to about 1.1 µM and inactive = higher. Where a SMILES comes first, the peptide text is derived from it. [ ]: non-standard residue; d: D form. The star is where a group is joined. ξ: configuration not given here. ξNMe2Val = CC(C)C(C(=O)*)N(C)C; NMeV = CN[CH](C(=O)O)C(C)C; NHBn = c1ccc(CN*)cc1
Reported metric: GI50

Solved cases below.
CN(C)C(=O)NCCN1CCCCCc2ccccc21
> 100 µM (inactive)
COc1ccc(C2=NNC(=O)c3ccccc3N2c2nc(-c3cccs3)nc3ccc(Br)cc23)cc1
53.7 µM (inactive)
Cn1c(=O)nc2n(-c3ccc(Cl)cc3)c3cc(Cl)ccc3nc-2c1=O
18.3 µM (inactive)

Prompt: Supply measured GI50 of CCCC(=O)NC(C(=O)OCC)(N1CCOCC1)C(F)(F)F (stereo not drawn) in your reply.
Completion: > 100 µM (inactive)

Prompt: Tell me its GI50 given CC(C)C(NC(=O)C(C(C)C)N(C)C)C(=O)N(C)C(C(=O)N1CCCC1C(=O)N1CCCC1C(=O)NCc1ccccc1)C(C)C (stereo not drawn) (ξNMe2Val-V[NMeV]PP-NHBn; configuration not given here) as the entry.
Completion: 0.000221 µM (active)

Prompt: Return GI50 (reported value) for this compound: Cc1n[nH]c(C(F)(F)F)c1/N=N/N1CCOCC1
Completion: 16.6 µM (inactive)

Prompt: Report GI50 for N=C1c2ccccc2C(=O)c2c(NCCNCCO)ccc(O)c21
Completion: 6.55 µM (inactive)

Prompt: Tell us which GI50 value is on record for C=C[C@H]1C=Cc2c(OC)cccc2[C@@H]1COP1(=S)NC(C)C(c2ccccc2)O1 (stereo partly drawn)
Completion: > 100 µM (inactive)

###

Test system: KM12
Experiment: NCI tumour cell line growth inhibition, 48 h
The source made the active and inactive calls. Rule as the data show it: active = GI50 up to about 1.1 µM and inactive = higher.
Reported GI50 by item:

C[C@]12Cc3cn[nH]c3C(=O)C1CC[C@@H]1C2CC[C@@]2(C)C1CC[C@@H]2O (stereo not given in full)
> 100 µM (inactive)
COc1ccc(/C=C2/S/C(=N\c3ccccc3)N(NC(=O)Cc3ccccc3)C2=O)cc1
> 100 µM (inactive)
CCOc1ccc(NC(=O)CC2C(=O)Nc3ccccc3S2(=O)=O)cc1 (stereo not given)
> 100 µM (inactive)
COc1cc(NC=C2C(=O)OC(C)(C)OC2=O)c(OC)c(C)c1OC
> 100 µM (inactive)
CO/C(=N\N=C\c1ccccc1F)c1ccncc1
> 10 µM (inactive)
CCOC(=O)C(=O)Nc1ccccc1OCC
> 100 µM (inactive)
CC(=O)N1c2ccccc2C23CCN(C)CC4C(C)OCC(C4CC2=O)C13 (stereo not given)
> 100 µM (inactive)
COc1nc(C(=O)O)c(Cl)c(OC)c1Cl
> 100 µM (inactive)

Prompt: GET GI50 | system: KM12 | item: CN1CCC23c4c5ccc(O)c4OC2c2[nH]c4ccccc4c2CC3(O)C1C5 (stereo not given)
Completion: 51.2 µM (inactive)

Prompt: Identify measured GI50 obtained with KM12 for C#CC(C)(C)OCCCCOc1cc(O)c2c(=O)c3ccccc3n(C)c2c1 .
Completion: 97.9 µM (inactive)

Prompt: Fill in GI50 for CC(C)(Br)C(Br)CC/C(=C/CBr)CBr.CC(C)(Br)C(Br)CC/C(=C\CBr)CBr (stereo not given) tested with KM12.
Completion: 4.16 µM (inactive)

Prompt: Please tell me the measured GI50 for Cn1c2ccccc2c(=O)c2c(O)cc3c(c21)C=CC1(CCCC1)O3 ; system: KM12.
Completion: > 100 µM (inactive)

Prompt: Look up and report measured GI50 (KM12) for the following molecule: O=C(/C=C/c1cccs1)c1cccc(C(=O)/C=C/c2cccs2)n1
Completion: 6.43 µM (inactive)

Prompt: Provide GI50, recorded with KM12, of Cc1ccc(N2C(=O)C(O)=C(C(=O)C(C)(C)C)C2c2ccc([N+](=O)[O-])cc2)cc1 (stereo not given)
Completion: 16.7 µM (inactive)

Prompt: Please look at COc1cc(/C=C/c2ccc(Br)cc2)cc(OC)c1OC and tell me its recorded GI50 on KM12.
Completion: 8.11 µM (inactive)

###

Recorded GI50 values for a group of compounds are listed next.
Tested on: SK-MEL-5
Experiment: NCI tumour cell line growth inhibition, 48 h
Activity calls are given as the source filed them. Rule as the data show it: active = GI50 up to about 1.1 µM and inactive = higher.

CC(C)=CCC/C(C)=C/CO [GERANIOL]
> 100 µM (inactive)

Prompt: Supply GI50 value. Item: O=C1/C(=C\c2ccc([N+](=O)[O-])o2)SC2NC(COc3ccc(Cl)cc3)=NN12 (stereo not given)
Completion: 12.8 µM (inactive)

Prompt: Supply reported GI50 belonging to this compound: Cc1c(C=C(C#N)C#N)c(=O)n(C)c(=O)n1C
Completion: > 100 µM (inactive)

Prompt: Please supply the value of reported GI50 for the item CC1=C(C#N)C(=C(C#N)C#N)OC1(C)Cc1ccccc1 (stereo not given)
Completion: 67.8 µM (inactive)

Prompt: Consider the compound CC(C)C(=O)Oc1cc2c(=O)oc3c(OC(=O)C(C)C)c(OC(=O)C(C)C)cc4c(=O)oc(c1OC(=O)C(C)C)c2c34 and give its recorded GI50.
Completion: > 100 µM (inactive)

###

# key: entry, value: GI50
System: NCI/ADR-RES
Experiment: NCI tumour cell line growth inhibition, 48 h
Active and inactive are the calls of the source. No stated cut-off is given here; in the data, active = GI50 up to about 1.1 µM and inactive = higher.

Cc1cc(C)c(O)c(CN2CCN(C(C)C)CCN(C(C)C)CC2)c1
25.9 µM (inactive)

Prompt: Tell me GI50 of CC1(C)CCC[C@@]2(C)C1CC[C@@]1(CO)O[C@H](C3=CC(=O)OC3O)C[C@H]12 (some centres undefined) when tested on NCI/ADR-RES.
Completion: 15 µM (inactive)

Prompt: Report GI50 under test system NCI/ADR-RES for CC(=O)C1=C(C)O[C@@H]2O[C@H](COCc3ccccc3)[C@@H](OCc3ccccc3)[C@H](O)[C@@H]2S1 .
Completion: 16.3 µM (inactive)

Prompt: Provide NCI/ADR-RES GI50 reading for O=C(O)C1CC(c2ccccc2)=NN1c1ccccc1 (centres undefined) .
Completion: 48.5 µM (inactive)

Prompt: Fill in GI50 for Cc1ccc(S(=O)(=O)Oc2nc3nc4ccccc4nc3nc2OS(=O)(=O)c2ccc(C)cc2)cc1 tested with NCI/ADR-RES.
Completion: > 100 µM (inactive)

Prompt: State GI50 (NCI/ADR-RES) of Cc1n(Cc2ccccc2)c2c([n+]1C)C(=O)c1ccccc1C2=O .
Completion: 21.1 µM (inactive)

Prompt: # return GI50 of CC(=O)NNC1=NN(C(C)=O)C2(S1)C(=O)Nc1ccc(Br)cc12 (centres undefined) (system: NCI/ADR-RES)
Completion: > 100 µM (inactive)

Prompt: Determine reported GI50 for COC(=O)CN1SC2(SC13C(C)(C)C(=O)C3(C)C)C(C)(C)C(=O)C2(C)C ; test system: NCI/ADR-RES.
Completion: 34.1 µM (inactive)

Prompt: Give NCI/ADR-RES GI50 for the following compound: Cc1cc(C(O)CNC(C)CCn2cnc3c2c(=O)n(C)c(=O)n3C)ccc1O (centres undefined)
Completion: > 100 µM (inactive)
